Measured values drawn from patent US5527697A for this set.

# System: esterase according to the invention (MACA-ester hydrolase)
# TEST_PROTOCOL: substrate specificity of the esterase according to the invention
# Type: biochemical
# PROTOCOL_CONDITIONS: substrate concentration 100 mM
Activity U/ml strictly less than 30 U/ml = label 1. Otherwise label 0.

These recorded examples may help you get a feel for the data.
1) CC(=O)OCC(COC(C)=O)OC(C)=O [Triacetin] = label 0
2) CCOC(=O)C(C)(C)C [Ethyl pivalate] = label 1
3) CCOC(=O)C(C)N (racemic) [D,L-alanine ethyl ester] = label 1
4) CCCC(=O)OCC(COC(=O)CCC)OC(=O)CCC [Tributyrin] = label 0

Below: the item to evaluate.
Consider the compound CCOC(=O)CC [Ethyl propionate] . Is its Activity U/ml strictly less than 30 U/ml?
label 1

---

# System: esterase according to the invention (MACA-ester hydrolase)
# TEST_PROTOCOL: substrate specificity of the esterase according to the invention
# Type: biochemical
# PROTOCOL_CONDITIONS: substrate concentration 100 mM
I'd appreciate it if you could supply Activity U/mg values for the items below.
Give bare numbers, in U/mg.

Look up Activity U/mg for the entries below, preserving their order.
1. CCOC(=O)C(C)Cl (stereo not drawn) [Ethyl 2-chloro-propionate, ethyl 2-chloropropionate]
2. CCOC(=O)C(C)(C)C [Ethyl pivalate]
3. CCOC(=O)CC [Ethyl propionate]
4. CCOC(=O)C(C)N (racemic)
5. CC(=O)OCC(COC(C)=O)OC(C)=O
6. CCCC(=O)OCC(COC(=O)CCC)OC(=O)CCC

1. 75
2. 42.75
3. 50
4. 40
5. 92.75
6. 93.75

---

# Tested on: esterase according to the invention (MACA-ester hydrolase)
# TEST_PROTOCOL: substrate specificity of the esterase according to the invention
# Type: biochemical
# PROTOCOL_CONDITIONS: substrate concentration 100 mM; relative to MACA ester pro J = 100
I'd appreciate it if you could supply Activity % values for the items below.

1) CCOC(=O)C(C)N (racemic) [D,L-alanine ethyl ester] = 45.5%
2) CCCC(=O)OCC(COC(=O)CCC)OC(=O)CCC [Tributyrin] = 106.5%
3) CC(=O)OCC(COC(C)=O)OC(C)=O [Triacetin] = 105.4%
4) CCOC(=O)C(C)(C)C [Ethyl pivalate] = 48.6%
5) CCOC(=O)C(C)Cl (stereo not drawn) [Ethyl 2-chloro-propionate, ethyl 2-chloropropionate] = 85.2%

Lab note: next molecule to report on.
Bench note, esterase according to the invention (MACA-ester hydrolase): entry CCOC(=O)CC [Ethyl propionate] , its Activity % = 56.8%
